This collection of values is drawn from PubChem BioAssay (NCI).

System: MDA-MB-435
assay summary: NCI tumour cell line growth inhibition, 48 h

# compound, TGI
data = [
    ("COc1c(C2(c3ccc(F)cc3)SCCCS2)c(=O)c1=O", "> 100 µM"),
    ("CCCC[C@@H]1NC(=O)[C@H](CCCCN)NC(=O)[C@H](CCCNC(=N)N)NC(=O)[C@H](CC(C)C)NC(=O)[C@@H](NC(=O)[C@H](Cc2cccc(Cl)c2)NC(=O)[C@@H]2CCCN2C(=O)[C@@H](NC(C)=O)C(C)C)CCSSC[C@@H](C(=O)N[C@@H](CCCCN)C(=O)N2CCC[C@H]2C(=O)N2CCC[C@H]2C(=O)N[C@@H](CCC(=O)O)C(N)=O)NC(=O)[C@H](Cc2ccccc2)NC(=O)[C@H](CO)NC(=O)[C@H](C)NC(=O)[C@@H]2CCCN2C1=O", "> 50 µM"),
    ("Cc1ccc(S(=O)(=O)N(C)C)cc1[N+](=O)[O-]", "> 100 µM"),
    ("CCCCCCCCCCCCNC(=O)NCC(OCC)OCC", "> 10 µM"),
    ("COc1cc(OC)c(-c2cc(=O)c3c(OC)c(OC)c(OC)c(OC)c3o2)cc1OC", "> 100 µM"),
    ("COC(=O)OC[C@H]1O[C@@H](n2cc(C)c(=O)[nH]c2=O)CC1OC(=O)OC (stereo partly specified)", "> 100 µM"),
]
